// provenance: PubChem BioAssay (NCI)

Exercise: for every item that follows, state its recorded TGI.
System: TK-10 renal
experiment.description: NCI tumour cell line growth inhibition, 48 h

Please review the following examples before continuing.
{"molecule": "COC(=O)C1=C(O)C(C(=O)OC)[C@@]2(O)[C@@H](C(=O)OC)CC[C@@H]1[C@@H]2C(=O)OC (stereo partly specified)", "result": "93.4 µM"}
{"molecule": "COC(=O)C1C(/C=C/c2ccoc2)ON2CCC[C@@H]12 (stereo partly specified)", "result": "> 100 µM"}

Quick request: TGI for each listed item, please.
1. Cc1ncc(CO)c(C=NCCCCCCN=Cc2c(CO)cnc(C)c2O)c1O
2. NCCCCCNOCCCN
3. Cn1ncnc1C1c2n[nH]c(=O)c3cc(F)cc(c23)NC1c1ccc(F)cc1 (stereo unspecified)
4. CN(C)c1ncnc2c1ccn2C1OC(CO)C(O)C1O (stereo unspecified)

1. > 100 µM
2. > 100 µM
3. > 100 µM
4. > 100 µM

----------
Exercise: for every item that follows, state its recorded TGI.
Test system: RPMI-8226 leukemia
experiment.description: NCI tumour cell line growth inhibition, 48 h

Please review the following examples before continuing.
{"molecule": "O=c1c(Sc2ncccn2)c(Sc2ncccn2)cnn1CCl", "TGI": "> 20.6 µM"}
{"molecule": "CN(C)c1ncnc2c1ccn2C1OC(CO)C(O)C1O (configuration not stated)", "TGI": "> 71.4 µM"}
{"molecule": "CCCC(CCC)C(=O)OCC1(CO)C/C(=C\\c2ccc(C(F)(F)F)cc2)C(=O)O1 (configuration not stated)", "TGI": "26.9 µM"}
{"molecule": "CNc1ncc2cc(Oc3ccc(F)cc3F)c(=O)n(C)c2n1", "TGI": "> 25 µM"}
{"molecule": "C[N+]12CCCCC1C(CN1C(=O)c3ccccc3C1=O)CCC2 (configuration not stated)", "TGI": "> 100 µM"}
{"molecule": "Cn1ncnc1C1c2n[nH]c(=O)c3cc(F)cc(c23)NC1c1ccc(F)cc1 (configuration not stated)", "TGI": "> 100 µM"}
{"molecule": "O=c1[nH]nc(-c2ccccc2)c2c(-c3ccccc3)onc12", "TGI": "> 55.4 µM"}
{"molecule": "CC(=O)NC1C(OCc2ccccc2)OC(CO)C(O)C1OCC(=O)N1CCCC1C(=O)NC(CCC(=O)NCCCCCNc1c2ccccc2nc2cccc([N+](=O)[O-])c12)C(N)=O (configuration not stated)", "TGI": "0.789 µM"}
{"molecule": "COc1ccc(C=C2C(=O)NC(=O)NC2=O)cc1OCc1ccccc1", "TGI": "48.8 µg/mL"}
{"molecule": "CC1(C)N=C(Oc2ccccc2)n2nccc2N1", "TGI": "> 100 µM"}

Quick request: TGI for each listed item, please.
1. O=C(Nc1ccc(S(=O)(=O)Nc2ncccn2)cc1)c1c2ccccc2nc2ccccc12
2. c1ccc(CSC(SCc2ccccc2)c2ccc3c(c2)OCO3)cc1

1. > 100 µM
2. > 10 µM

----------
System: OVCAR-3 ovarian
experiment.description: NCI tumour cell line growth inhibition, 48 h
Exercise: for every item that follows, state its recorded GI50.

{"compound": "Cc1ccccc1NC(=O)c1cc2ccccc2cc1O", "result": "2560 nM"}

Quick request: GI50 for each listed item, please.
1. O=c1[nH]nc(-c2ccccc2)c2c(-c3ccccc3)onc12
2. O=C1C=C(OCCCl)C(=O)c2c(O)ccc(O)c21
3. CC(=O)n1c(-c2ccc(Cl)c(Cl)c2)cn(-c2ccc(Cl)cc2)c1=O
4. CCCCN(CCCC)CCC(O)c1cc2ccc(C(F)(F)F)cc2c2cc(C(F)(F)F)ccc12 (stereo unspecified)
5. COc1ccc2c(c1OC)C(=O)O[C@@H]2[C@H]1c2c(c(Br)c3c(c2OC)OCO3)CCN1C

1. 358 nM
2. 286 nM
3. 51200 nM
4. 2890 nM
5. 10600 nM
